- protocol.details: solvent given as SMILES
- measurement.setup: in Cc1ccccc1
# if value of emission maximum reaches 500 nm, tag T; if it stays below, tag F

CC(C)(C)c1cc(-c2c3cccc4c5cccc6c(-c7cc(C(C)(C)C)cc(C(C)(C)C)c7)c7cccc8c9cccc2c9c(c34)c(c65)c78)cc(C(C)(C)C)c1 ... T

Determine whether this molecule has emission maximum no lower than 500 nm: "CC1(C)c2ccccc2N(c2ccc(-c3cc(-c4ccccc4)nc(-c4ccccc4)n3)cc2)c2ccccc21" F

Determine whether this molecule has emission maximum no lower than 500 nm: "COC(=O)c1ccc(-c2ccc(-c3nnc(-c4ccc(-c5nnc(-c6ccc(-c7ccc(C(=O)OC)cc7)s6)o5)cc4)o3)s2)cc1" F

Determine whether this molecule has emission maximum no lower than 500 nm: "CC(C)(C)c1ccc(-c2cc3c(-c4ccc(C(C)(C)C)cc4)c4cccc5c(-c6ccc(C(C)(C)C)cc6)cc6c(-c7ccc(C(C)(C)C)cc7)c7cccc2c7c3c6c54)cc1" F

Determine whether this molecule has emission maximum no lower than 500 nm: "Cc1cc(N2c3ccccc3[Si](c3ccccc3)(c3ccccc3)c3ccccc32)c(C)cc1-c1nc(-c2ccccc2)nc(-c2ccccc2)n1" F

Determine whether this molecule has emission maximum no lower than 500 nm: "CCC1=C(C)C2=C(c3ccc(-c4c5ccccc5c(-c5ccccc5)c5ccccc45)cc3)c3c(C)c(CC)c(C)n3[B-](F)(F)[N+]2=C1C" T

Determine whether this molecule has emission maximum no lower than 500 nm: "c1ccc2c(c1)ccc1ccccc12" F

Determine whether this molecule has emission maximum no lower than 500 nm: "C(=C\c1cc(/C=C/c2ccc(-n3c4ccccc4c4ccccc43)cc2)cc(/C=C/c2ccc(-n3c4ccccc4c4ccccc43)cc2)c1)/c1ccc(-n2c3ccccc3c3ccccc32)cc1" F

Determine whether this molecule has emission maximum no lower than 500 nm: "Cc1cc(C(F)(F)F)nc2c1ccc1nc(-c3ccc(F)c(F)c3)cn12" F

Determine whether this molecule has emission maximum no lower than 500 nm: "CC(C)(C)c1ccc2c3c(c4ccc(C(C)(C)C)cc4c2c1)=[N+]1C(=C(c2ccccc2)c2cc4c5ccc(C(C)(C)C)cc5c5cc(C(C)(C)C)ccc5c4n2[B-]1(F)F)C=3" T

Determine whether this molecule has emission maximum no lower than 500 nm: "O=C(c1ccncc1)c1ccc(-n2c3ccccc3c3cc(-n4c5ccccc5c5ccccc54)ccc32)cc1" F

###

- protocol.details: solvent given as SMILES
- measurement.setup: in ClCCl
# if value of emission maximum reaches 500 nm, tag criterion met; if it stays below, tag criterion not met

Use the examples below as a reference point.
CC(C)(C)c1ccc2c(c1)c1cc(C(C)(C)C)ccc1n2-c1ccc(N(c2ccc(-c3ccc(-c4ccc(-c5ccc(-c6ccc(N(c7ccc(-n8c9ccc(C(C)(C)C)cc9c9cc(C(C)(C)C)ccc98)cc7)c7ccc(-n8c9ccc(C(C)(C)C)cc9c9cc(C(C)(C)C)ccc98)cc7)cc6)s5)c5nsnc45)s3)cc2)c2ccc(-n3c4ccc(C(C)(C)C)cc4c4cc(C(C)(C)C)ccc43)cc2)cc1 ... criterion met
CCCCCCCCCCCCC(CCCCCCCCCC)Cn1c2cc(/C=C/c3nc4ccccc4s3)c3cccc4c5cccc6c(/C=C/c7nc8ccccc8s7)cc1c(c65)c2c34 (stereo unspecified) ... criterion met
COc1ccc(-c2csc(/C(C#N)=C\Nc3ccc(C#N)cc3)n2)cc1 ... criterion not met
F[B-]1(F)OC(C#Cc2ccccc2)=CC(c2ccccc2)=[O+]1 ... criterion not met

Determine whether this molecule has emission maximum no lower than 500 nm: "CC(C)(C)c1ccc2c(c1)c1cc(C(C)(C)C)ccc1n2-c1ccc(C#Cc2ccc(C=O)cc2)cc1" criterion met

Determine whether this molecule has emission maximum no lower than 500 nm: "CCc1c(C)c2n(c1C)[B-](F)(F)[N+]1=C(NCc3ccc(OC)cc3)C(SC#N)=CC1=C2C" criterion met

Determine whether this molecule has emission maximum no lower than 500 nm: "C[Si]1(C)c2cc(C#Cc3ccccc3)ccc2C=Cc2ccc(C#Cc3ccccc3)cc21" criterion not met

Determine whether this molecule has emission maximum no lower than 500 nm: "CN(C)c1ccc(/C=C/C=C2\CC/C(=C\C=C\c3ccc(N(C)C)cc3)C2=O)cc1" criterion met

Determine whether this molecule has emission maximum no lower than 500 nm: "C[Si](C)(c1ccc(-c2nc3ccccc3n2-c2ccccc2)cc1)c1ccc(-c2nc3ccccc3n2-c2ccccc2)cc1" criterion not met

###

- protocol.details: solvent given as SMILES
- measurement.setup: in ClCCl
recorded.metric: emission maximum (nm)
Only the number, expressed in nm, is required.

Below, 5 compounds whose answers are already recorded.
Clc1ncc(-c2c3ccccc3c(-c3cnc(Cl)nc3)c3ccccc23)cn1 ... 421
c1ccc(-c2c3ccccc3c(-c3ccc(-c4cccnc4)cc3)c3ccccc23)cc1 ... 417
CCCSc1ccc2n1[B-](F)(F)[N+]1=C(SC#N)C=CC1=C2c1ccccc1 ... 569
C[P+]1(c2ccccc2)C2=C(c3ccccc31)S(=O)(=O)c1ccccc12 (centres undefined) ... 483
S=P1(c2ccccc2)c2cccc3ccc4ccc1n4c23 (centres undefined) ... 490

// below: emission maximum requested for another compound
// lookup emission maximum for "CCCCn1c2ccc3ccc4ccccc4c3c2c2c3c(ccc4ccccc43)ccc21" 430

###

- protocol.details: solvent given as SMILES
- measurement.setup: in ClCCl
recorded.metric: emission maximum (nm)
Only the number, expressed in nm, is required.

CC(C)(C)NC(=O)c1ccc(F)c2ccc3c4ccccc4c4ccccc4c3c12 ... 405

// lookup emission maximum for "CN(C)c1ccc(C#Cc2cc(C#Cc3ccc(C(F)(F)F)cc3)c3ccc4c(C#Cc5ccc(C(F)(F)F)cc5)cc(C#Cc5ccc(N(C)C)cc5)c5ccc2c3c54)cc1" 608

// lookup emission maximum for "CC(C)[Si](C#Cc1c2cc3ccccc3cc2c(C#C[Si](C(C)C)(C(C)C)C(C)C)c2nc3ccccc3nc12)(C(C)C)C(C)C" 738

// lookup emission maximum for "Cc1ccccc1-c1c2cccc3c(-c4ccc(C(C)(C)C)cc4)cc4c(-c5ccccc5C)c5cccc6c(-c7ccc(C(C)(C)C)cc7)cc1c(c65)c4c32" 455

// lookup emission maximum for "CCCCN(CCCC)c1ccc(C#Cc2cc(C#Cc3ccc([N+](=O)[O-])cc3)c(C#Cc3ccc([N+](=O)[O-])cc3)cc2C#Cc2ccc(N(CCCC)CCCC)cc2)cc1" 563

// lookup emission maximum for "Cc1cc(-c2ccccc2)cc(C)[o+]1" 434

// lookup emission maximum for "COc1ccc2c(c1)-c1cc3c(cc1[Si]2(c1ccccc1)c1ccccc1)-c1ccccc1[Si]3(c1ccccc1)c1ccccc1" 397

###

- protocol.details: solvent given as SMILES
- measurement.setup: in CC#N
# if value of emission maximum reaches 500 nm, tag Y; if it stays below, tag N

Use the examples below as a reference point.
CCC1=C(C)C2=C(c3c4ccccc4c(-c4ccccc4)c4ccccc34)c3c(C)c(CC)c(C)n3[B-](F)(F)[N+]2=C1C ... Y
c1cc2ccc3cccc4c(-c5cc(-c6nccs6)nc(-c6nccs6)c5)cc(c1)c2c34 ... N
Cc1cc(=O)oc2ccc3ccc(O)cc3c12 ... N
Cn1c(-c2ccc(-c3nc(-c4ccccc4)c(-c4ccccc4)n3C)s2)nc(-c2ccccc2)c1-c1ccccc1 ... N
F[B-]1(F)n2cccc2C=C2c3ccccc3C(c3ccc[nH]3)=[N+]21 ... Y

Determine whether this compound has emission maximum no lower than 500 nm: "COc1ccc(/C=C/c2cc(/C=C/c3ccc(OC)cc3)nc(/C=C/c3ccc4cc(OC)ccc4c3)n2)cc1" N

Determine whether this compound has emission maximum no lower than 500 nm: "Nc1ccc(/C=C/c2ccccc2)cc1" N

Determine whether this compound has emission maximum no lower than 500 nm: "CN(C)CCNCc1c2ccccc2cc2ccccc12" N

Determine whether this compound has emission maximum no lower than 500 nm: "CC1=N/C(=C\c2cc(C#N)cc(N(C)C)c2)C(=O)N1C" Y

Determine whether this compound has emission maximum no lower than 500 nm: "COc1ccc(C#Cc2cc3ccccc3oc2=O)cc1" N

Determine whether this compound has emission maximum no lower than 500 nm: "Cc1cc(C)c(B(c2c(C)cc(C)cc2C)c2cc3ccc4ccccc4c3c3c2cc(N(C)C)c2ccccc23)c(C)c1" Y

###

- protocol.details: solvent given as SMILES
- measurement.setup: in CC#N
recorded.metric: emission maximum (nm)
Only the number, expressed in nm, is required.

Cc1ccc(-c2nc3c([nH]2)C2=CC(=O)S[C@]2(C)[C@@]2(C)SC(=O)C=C32)cc1 ... 520
F[B-]1(F)n2c(c(Sc3ccccc3)c3c2-c2ccccc2CC3)C=C2C(Sc3ccccc3)=C3CCc4ccccc4C3=[N+]21 ... 661

// lookup emission maximum for "CCOC(=O)CC[N+]1=c2cc3c(cc2CCC1)=Cc1c(c2ccc(N(C)C)cc2oc1=O)O3" 643

// lookup emission maximum for "CN(C)c1ccc(/C=C/c2cc[n+](CCC[n+]3ccc(/C=C/c4ccc(N(C)C)cc4)cc3)cc2)cc1" 609

Each recorded value in this set is attributed to the Deep4Chem optical property database.
